meta.source: the Human Domainome abundance scans (Beltran et al. 2025)

B1: RNA-binding E3 ubiquitin-protein ligase MEX3C, residues 325 to 391; numbered along this chain, Q5U5Q3 (parent)
chain: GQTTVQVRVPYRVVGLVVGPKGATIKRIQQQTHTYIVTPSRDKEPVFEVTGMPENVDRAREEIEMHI

Variants of: B1
assay method text: abundance fitness (aPCA) (normalised: wild type 0, dead -1); higher = more abundant; growth selection in yeast, the domain comes from the species named
setup conditions: Homo sapiens
# Lookup of reported abundance fitness keyed by entry

{"variant name": "M52R", "abundance fitness": -0.167}
{"variant name": "P45I", "abundance fitness": -0.622}
{"variant name": "S40E", "abundance fitness": -0.029}
{"variant name": "V46W", "abundance fitness": -0.662}
{"variant name": "T32A", "abundance fitness": -0.712}
{"variant name": "V49T", "abundance fitness": -0.626}
{"variant name": "K26N", "abundance fitness": -0.491}
{"variant name": "R27A", "abundance fitness": -0.37}
{"variant name": "G51E", "abundance fitness": -0.599}
{"variant name": "T50V", "abundance fitness": -0.745}
{"variant name": "H33L", "abundance fitness": -0.582}
